# experimental.target: HLA-A*0201 (human)
# assay: competition with 125I-labelled standard peptide for purified HLA, gel filtration
# experimental.parameters: remark: other sources report otherwise
readout.type: IC50 (nM)
Number in nM, nothing else.

Measured IC50 of DLMLLRLSEPV (modifications not checked) [peptide 1419.13 (PSA.116.V11 / HuK2.120.V11)] : 50

Values compiled from patent US20070020327A1.
